Each item that follows carries a reported pED50.
species on record: Rattus norvegicus; assay: Negative Log of ED50 used to stimulate alpha adrenergic activity in rat aorta
REPORTED_ENDPOINT: pED50

# STRUCTURE_SMILES_STRING, ENDPOINT_VALUE
records = [
    ("Cl.Oc1ccc(CC2=NC[C@@H](Cc3ccccc3)N2)cc1O", 4.44),
    ("Cl.Oc1ccc(CC2=NCCN2)cc1O", 8.59),
    ("Cl.Oc1ccc([C@H](O)C2=NCCN2)cc1O", 7.67),
    ("Cl.Oc1ccc([C@@H](O)C2=NCCN2)cc1O", 8.59),
    ("C[C@H]1CN=C(Cc2ccc(O)c(O)c2)N1.Cl", 6.32),
    ("Cl.Oc1ccc(CC2=NC[C@H](Cc3ccccc3)N2)cc1O", 4.33),
    ("CN1CC[N+](C)=C1Cc1ccc(O)c(O)c1.Cl.F[B-](F)(F)F", 5.54),
    ("C[C@@H]1CN=C(Cc2ccc(O)c(O)c2)N1.Cl", 6.29),
]
